- System: SK-OV-3
- assay_summary: NCI tumour cell line growth inhibition, 48 h
The source made the active and inactive calls. Rule as the data show it: active = GI50 up to about 1.1 µM and inactive = higher.
Use one of these outcomes when replying: yes = active, no = inactive

Kindly provide the recorded test outcome for the following compound: CC(=O)OCC1OC(Oc2cc(C)c(O)cc2C/C=C(\C)CC/C=C(\C)CC(=O)CC(C)C)C(O)C(OC(C)=O)C1OC(C)=O (centres undefined)
no

Kindly provide the recorded test outcome for the following compound: "CCC1(CC)C(=O)CC[C@@]2(C)C1=CC[C@H]1[C@@H]3CC[C@H](O)[C@@]3(C)CC[C@@H]12"
no

Kindly provide the recorded test outcome for the following compound: "O=C(NCCOC(=O)OCCNC(=O)NC1CCCCC1)NC1CCCCC1"
no

Kindly provide the recorded test outcome for the following compound: "COc1ccc2c(c1)c1c(n2CCN(C)C)-c2ccccc2CC1"
no

Kindly provide the recorded test outcome for the following compound: CC(C)(C)OC(=O)N1N=CCC1c1ccccc1 (centres undefined)
no

Kindly provide the recorded test outcome for the following compound: O=C(O)c1cc(O)c2c(c1)C([C@@H]1c3cccc(O)c3C(=O)c3c(O)cc(C(=O)O)cc31)c1cccc(O)c1C2=O (some centres undefined)
no

Kindly provide the recorded test outcome for the following compound: "CC(C)=CCOc1cc(NC(=S)c2ccoc2C)ccc1Cl"
no

Kindly provide the recorded test outcome for the following compound: "CN(C)CCCNC(=O)CCNC(=O)c1cc(NC(=O)c2cc(NC(=O)c3cc(NC(=O)CCCNC(=O)c4cc(NC(=O)c5cc(NC(=O)c6nccn6C)cn5C)cn4C)cn3C)cn2C)cn1C"
no

Kindly provide the recorded test outcome for the following compound: "COc1ccc(OCC(=O)O)c(C(=O)CCC(=O)O)c1"
no

Kindly provide the recorded test outcome for the following compound: CCC(C)C(=O)O[C@H]1C(=O)O[C@@H]2C[C@H]3C(C)=CC(=O)[C@@H](O)[C@]3(C)[C@H]3[C@@H](O)[C@H](O)[C@@]4(C)OC[C@]32[C@@H]14 (some centres undefined)
yes

Kindly provide the recorded test outcome for the following compound: "Cc1ccc(S(=O)(=O)N(CCN2C(=O)c3ccccc3C2=O)c2cc3c4c(c2)Oc2cc(N(CCN5C(=O)c6ccccc6C5=O)S(=O)(=O)c5ccc(C)cc5)cc5c2C4(C)c2c(cc(N(CCN4C(=O)c6ccccc6C4=O)S(=O)(=O)c4ccc(C)cc4)cc2O5)O3)cc1"
no

Kindly provide the recorded test outcome for the following compound: "Nc1cc(OCc2ccccc2)c(OCc2ccccc2)cc1C=O"
no

Kindly provide the recorded test outcome for the following compound: O=C(CC(O)(c1ccccc1)c1ccc(Cl)cc1)NC(=O)c1ccccc1O (centres undefined)
no

Kindly provide the recorded test outcome for the following compound: "COc1cc(/C=N/NC(=O)c2c(Cl)c(Cl)c(Cl)c(Cl)c2-c2nc3ccccc3[nH]2)ccc1O"
no

Kindly provide the recorded test outcome for the following compound: "O=C(O)c1ccc(C(=O)O)c2c(C(=O)O)ccc(C(=O)O)c12"
no

Kindly provide the recorded test outcome for the following compound: CSc1ncc2c(n1)-c1ccccc1OC2NC(C)(C)C (centres undefined)
no

Kindly provide the recorded test outcome for the following compound: Clc1ccccc1C1SCc2nc3ccccc3n21 (centres undefined)
no

Kindly provide the recorded test outcome for the following compound: "CC1=C2C(=O)c3ccccc3C(=O)[C@H]2C[C@@H](N2CCCC2=O)O1"
no

Kindly provide the recorded test outcome for the following compound: "c1ccc2c(c1)[Se]c1ccccc1[Se]2"
no

* * *

- System: TK-10
- assay_summary: NCI tumour cell line growth inhibition, 48 h
Activity calls are given as the source filed them. Cut-off read from the data, not from the text of the source: active = GI50 up to about 1.1 µM and inactive = higher.
Use one of these outcomes when replying: active, inactive

Kindly provide the recorded test outcome for the following compound: "CCN(c1cccc(NC(=S)Nc2ccccc2N(CC)c2cc(-c3ccccc3)no2)c1)c1cc(-c2ccccc2)no1"
inactive

Kindly provide the recorded test outcome for the following compound: "O=C(O)C(F)(F)C(F)(F)C(F)(F)C(F)(F)C(F)(F)C(F)(F)C(F)(F)C(F)(F)F"
inactive

Kindly provide the recorded test outcome for the following compound: Cc1ccc(NC(=O)/C(=N/NC(=O)CC#N)C2C(=O)N(c3ccccc3)N=C2N)cc1C (stereo not given)
inactive

Kindly provide the recorded test outcome for the following compound: C/C(=N\OCC(O)CNCCSCc1ccccc1)c1ccccc1Cl (stereo not given)
inactive

Kindly provide the recorded test outcome for the following compound: "COc1ccc2nc(NC(=O)C(=O)CC(=O)c3ccc(Cl)cc3)sc2c1"
inactive

Kindly provide the recorded test outcome for the following compound: CCCCCCCCCCCCC(Br)C(=O)NCC(N)=O (stereo not given)
inactive

Kindly provide the recorded test outcome for the following compound: "COc1ccc(C(=O)Nc2ccc(O)c(=O)cc2)cc1"
inactive

Kindly provide the recorded test outcome for the following compound: "Cc1ccnc2nc(N)ccc12"
inactive

Kindly provide the recorded test outcome for the following compound: C/C=C(/COC(C)=O)C(=O)OC1C=C(C=O)C(C)(C)C=C1C (stereo not given)
inactive

Kindly provide the recorded test outcome for the following compound: "CCOC(=O)CCC1(CCC(=O)OCC)CCCCCCCCC(CCC(=O)OCC)(CCC(=O)OCC)C(=O)C1=O"
inactive

Kindly provide the recorded test outcome for the following compound: "N=C(N)NS(=O)(=O)c1ccc(Nc2c3ccccc3nc3ccc(C(=O)Nc4ccc(S(N)(=O)=O)cc4)cc23)cc1"
inactive

Kindly provide the recorded test outcome for the following compound: "CCOc1ncnc2ccc(Cl)c(I)c12"
inactive

Kindly provide the recorded test outcome for the following compound: "Cc1ccc(C(=O)/C=C2\Nc3ccccc3NC2=O)cc1"
inactive

Kindly provide the recorded test outcome for the following compound: C=CCC1(C(=O)OC(C)(C)C)C(OC)=C(C(=O)OC(C)(C)C)C2C1C(C(=O)OC(C)(C)C)=C(OC)C2(CC=C)C(=O)OC(C)(C)C (stereo not given)
inactive

Kindly provide the recorded test outcome for the following compound: Cc1ccccc1N1C(N)=C(C#N)C(C#N)(C#N)C1c1ccccc1 (stereo not given)
inactive

Kindly provide the recorded test outcome for the following compound: "COC(=O)/C(C#N)=C(\Nc1ccccc1)N1CCCC1"
inactive

Kindly provide the recorded test outcome for the following compound: "CC(C)C1(O)C(c2ccccc2)=C(c2ccccc2)C(c2ccccc2)=C1c1ccccc1"
inactive

Kindly provide the recorded test outcome for the following compound: "c1ccc([P+](c2ccccc2)(c2ccccc2)c2ccc(-c3ccc([P+](c4ccccc4)(c4ccccc4)c4ccccc4)cc3)cc2)cc1"
inactive

Kindly provide the recorded test outcome for the following compound: "COc1ccc(/C(Cl)=C(\C=O)c2ccc(F)cc2)cc1"
inactive

Kindly provide the recorded test outcome for the following compound: "FC(F)=C(c1ccc(-c2ccc(Cl)cc2)cc1)C(F)(F)F"
inactive

Kindly provide the recorded test outcome for the following compound: "C[Si](C)(C)/C(I)=C/CO"
inactive

Kindly provide the recorded test outcome for the following compound: "Cc1cc(=O)nc(S(=O)(=O)NC(=S)Nc2ccc(Cl)cc2)[nH]1"
inactive

Kindly provide the recorded test outcome for the following compound: "COc1ccccc1/C=C1\N=C(C)OC1=O"
inactive

Kindly provide the recorded test outcome for the following compound: "CCOC(=O)c1cc(Br)c(-c2onc(C)c2Br)n1C"
inactive

Kindly provide the recorded test outcome for the following compound: "c1ccc(OCc2nnc(CCCCCCCCc3nnc(COc4ccccc4)o3)o2)cc1"
inactive

Kindly provide the recorded test outcome for the following compound: "O=C(NCCOC(=O)OCCNC(=O)NC1CCCCC1)NC1CCCCC1"
inactive

Kindly provide the recorded test outcome for the following compound: CCCCCCCCCCCCOP(=O)(O)OP(=O)(O)OCC1OC(n2cc(C)c(=O)[nH]c2=O)CC1O (stereo not given)
inactive

Kindly provide the recorded test outcome for the following compound: "CC(C)(C)OC(=O)[C@@H]1CCC(=S)N1Cc1ccccc1"
inactive

Kindly provide the recorded test outcome for the following compound: "COC(=O)CCCc1ccc2c(c1)CC1(Cc3ccccc3C1)C2"
inactive

Kindly provide the recorded test outcome for the following compound: CC1O[C@@H]2CCCCC(=O)[C@]2(C)[C@H]1C (stereo not given in full)
inactive

Kindly provide the recorded test outcome for the following compound: CC1(C)C/N=C/C(C)(OCc2ccccc2)C(=O)NC(C)(C)C/N=C/C(C)(OCc2ccccc2)C(=O)N1 (stereo not given)
inactive

Kindly provide the recorded test outcome for the following compound: "COc1ccccc1N1C(=O)/C(=C/c2ccc(N(CCC#N)CCC#N)cc2C)N=C1c1cc([N+](=O)[O-])ccc1Cl"
inactive

Kindly provide the recorded test outcome for the following compound: CC(C)C1=C(O)C(=O)C2=C(C1=O)C(O)CC1C(C)(C)CCCC21C (stereo not given)
inactive

Kindly provide the recorded test outcome for the following compound: CC(C)C(Cl)CCC(C)(Cl)C(=O)CBr (stereo not given)
inactive

Kindly provide the recorded test outcome for the following compound: CN(C)C(=O)C(F)(F)C(c1ccc(Br)cc1)C1C(=O)N(C)C(=O)N(C)C1=O (stereo not given)
inactive

Kindly provide the recorded test outcome for the following compound: "CN(C)CCn1c(CO)nc2c1c(=O)n(C)c(=O)n2C"
inactive

Kindly provide the recorded test outcome for the following compound: CCOC(=O)C(NCc1cccc(C(F)(F)F)c1)(NC(=O)CC)C(F)(F)F (stereo not given)
inactive

Kindly provide the recorded test outcome for the following compound: "COc1ccc2c(c1)/C(=C\c1c(C)nc3n1CCS3)C(=O)N2"
inactive

Kindly provide the recorded test outcome for the following compound: "CO[C@H]1C[C@H](O[C@H]2CC[C@]3(C=O)[C@H]4CC[C@]5(C)[C@@H](C6=CC(=O)OC6)CC[C@]5(O)[C@@H]4CC[C@]3(O)C2)O[C@H](C)[C@H]1O[C@@H]1O[C@H](CO)[C@@H](O)[C@H](O)[C@H]1O"
active

Kindly provide the recorded test outcome for the following compound: COC(=O)C12C3C4(C(=O)OC)C1C1(C(=O)OC)C2C3(C(=O)OC)C41C(=O)N(C(C)C)C(C)C (stereo not given)
inactive
